meta.source: patent US11230581B2

# assaySystem: HLA-A*02:01 (Homo sapiens, UniProt P04439, D140Y/D185E/D98H/E176V/E277Q/G131W/G231S/I119V/I121R/I166T/I218V/L300P/L318F/N151K/N90K/P208A/P217A/Q86G/Q94H/R138H/R169H/T345S)
# assaySummary: MHC binding assay (UV-ligand exchange, β2m ELISA, peptide exchange yield)
# recordedConditions: binding of HLA-class I restricted peptides to HLA-A*02:01, UV-ligand exchange
property: Peptide exchange (MHC class I binding score, peptide exchange yield)

{"substance": "174 (ALAQYLITA; listed as Homo sapiens) [compound 174]", "observedValue": "“+++” (≥50 = +++)"}
{"substance": "381 (FIDEAYVEV; listed as Homo sapiens) [compound 381]", "observedValue": "“++” (≥20% = ++)"}
{"substance": "138 (YQYPRAILSV; listed as Homo sapiens) [compound 138]", "observedValue": "“+++” (≥50 = +++)"}
{"substance": "146 (SLATAGDGLIEL; listed as Homo sapiens) [compound 146]", "observedValue": "“++” (≥20% = ++)"}
{"substance": "149 (NLLELFVQL; listed as Homo sapiens) [compound 149]", "observedValue": "“+++” (≥50 = +++)"}

Kindly review the next substance as well.
Exercise: Return reported Peptide exchange (MHC class I binding score, peptide exchange yield). Input substance: 587 (VMNDRLYAI; listed as Homo sapiens) [compound 587]
Key: “+++” (≥50 = +++)

###

# assaySystem: HLA-A*02:01 (Homo sapiens, UniProt P04439, D140Y/D185E/D98H/E176V/E277Q/G131W/G231S/I119V/I121R/I166T/I218V/L300P/L318F/N151K/N90K/P208A/P217A/Q86G/Q94H/R138H/R169H/T345S)
# assaySummary: MHC binding assay (UV-ligand exchange, β2m ELISA, peptide exchange yield)
# recordedConditions: binding of HLA-class I restricted peptides to HLA-A*02:01, UV-ligand exchange
property: Peptide exchange (MHC class I binding score, peptide exchange yield)

{"substance": "550 (FLYDEIEAEVNL; listed as Homo sapiens) [compound 550]", "observedValue": "“+++” (≥50 = +++)"}
{"substance": "39 (SVAPNLPAV; listed as Homo sapiens) [compound 39]", "observedValue": "“+++” (≥50 = +++)"}
{"substance": "559 (VTVPPGPSL; listed as Homo sapiens) [compound 559]", "observedValue": "“++” (≥20% = ++)"}
{"substance": "575 (YLISQVEGHQV; listed as Homo sapiens) [compound 575]", "observedValue": "“+++” (≥50 = +++)"}

Exercise: Please report the measured Peptide exchange (MHC class I binding score, peptide exchange yield) for 580 (LLMENAERV; listed as Homo sapiens) [compound 580]
Key: “++” (≥20% = ++)

###

# assaySystem: HLA-A*02:01 (Homo sapiens, UniProt P04439, D140Y/D185E/D98H/E176V/E277Q/G131W/G231S/I119V/I121R/I166T/I218V/L300P/L318F/N151K/N90K/P208A/P217A/Q86G/Q94H/R138H/R169H/T345S)
# assaySummary: MHC binding assay (UV-ligand exchange, β2m ELISA, peptide exchange yield)
# recordedConditions: binding of HLA-class I restricted peptides to HLA-A*02:01, UV-ligand exchange
property: Peptide exchange (MHC class I binding score, peptide exchange yield)

Here are 5 substances together with their reported answers.
{"substance": "523 (YQIPRTFTL; listed as Homo sapiens) [compound 523]", "observedValue": "“++” (≥20% = ++)"}
{"substance": "561 (YLQLTQSEL; listed as Homo sapiens) [compound 561]", "observedValue": "“+++” (≥50 = +++)"}
{"substance": "503 (SLNHFTHSV; listed as Homo sapiens) [compound 503]", "observedValue": "“+++” (≥50 = +++)"}
{"substance": "87 (ALPEAPAPLLPHIT; listed as Homo sapiens) [compound 87]", "observedValue": "“++” (≥20% = ++)"}
{"substance": "262 (LLWGDLIWL; listed as Homo sapiens) [compound 262]", "observedValue": "“+++” (≥50 = +++)"}

Exercise: Supply recorded Peptide exchange (MHC class I binding score, peptide exchange yield) for 299 (YLLETSGNL; listed as Homo sapiens) [compound 299] here.
Key: “+++” (≥50 = +++)

Exercise: Entry 512 (SLSEIVPCL; listed as Homo sapiens) [compound 512] needs its Peptide exchange (MHC class I binding score, peptide exchange yield) filled in; supply it.
Key: “+++” (≥50 = +++)

Exercise: Look up and state reported Peptide exchange (MHC class I binding score, peptide exchange yield) for 518 (KLNAEVACV; listed as Homo sapiens) [compound 518]
Key: “+++” (≥50 = +++)

###

# assaySystem: HLA-A*02:01 (Homo sapiens, UniProt P04439, D140Y/D185E/D98H/E176V/E277Q/G131W/G231S/I119V/I121R/I166T/I218V/L300P/L318F/N151K/N90K/P208A/P217A/Q86G/Q94H/R138H/R169H/T345S)
# assaySummary: MHC binding assay (UV-ligand exchange, β2m ELISA, peptide exchange yield)
# recordedConditions: binding of HLA-class I restricted peptides to HLA-A*02:01, UV-ligand exchange
property: Peptide exchange (MHC class I binding score, peptide exchange yield)

Answered examples (5):
{"substance": "400 (SLLTEQDLWTV; listed as Homo sapiens) [compound 400]", "observedValue": "“++” (≥20% = ++)"}
{"substance": "232 (ALLEAQDVELYL; listed as Homo sapiens) [compound 232]", "observedValue": "“++” (≥20% = ++)"}
{"substance": "11 (KIFEMLEGV; listed as Homo sapiens) [compound 11]", "observedValue": "“+++” (≥50 = +++)"}
{"substance": "20 (RMIEYFIDV; listed as Homo sapiens) [compound 20]", "observedValue": "“+++” (≥50 = +++)"}
{"substance": "233 (VLSETLYEL; listed as Homo sapiens) [compound 233]", "observedValue": "“++” (≥20% = ++)"}

Exercise: Hello, please tell me recorded Peptide exchange (MHC class I binding score, peptide exchange yield) for this one: 484 (SLIEKVTQL; listed as Homo sapiens) [compound 484]
Key: “+++” (≥50 = +++)

Exercise: Fill in Peptide exchange (MHC class I binding score, peptide exchange yield) for record 85 (KMSELRVTL; listed as Homo sapiens) [compound 85]
Key: “+++” (≥50 = +++)

Exercise: Quickly give me recorded Peptide exchange (MHC class I binding score, peptide exchange yield) for 22 (IMEENPGIFAV; listed as Homo sapiens) [compound 22]
Key: “+++” (≥50 = +++)

Exercise: Consider the substance 166 (YLNHLEPPV; listed as Homo sapiens) [compound 166] . State its measured Peptide exchange (MHC class I binding score, peptide exchange yield).
Key: “+++” (≥50 = +++)

Exercise: Assign Peptide exchange (MHC class I binding score, peptide exchange yield) to the following record: 147 (SLLEAVSFL; listed as Homo sapiens) [compound 147]
Key: “+++” (≥50 = +++)

Exercise: State its Peptide exchange (MHC class I binding score, peptide exchange yield) for this substance: 189 (ALQRKLPYV; listed as Homo sapiens) [compound 189]
Key: “+++” (≥50 = +++)

###

# assaySystem: HLA-A*02:01 (Homo sapiens, UniProt P04439, D140Y/D185E/D98H/E176V/E277Q/G131W/G231S/I119V/I121R/I166T/I218V/L300P/L318F/N151K/N90K/P208A/P217A/Q86G/Q94H/R138H/R169H/T345S)
# assaySummary: MHC binding assay (UV-ligand exchange, β2m ELISA, peptide exchange yield)
# recordedConditions: binding of HLA-class I restricted peptides to HLA-A*02:01, UV-ligand exchange
property: Peptide exchange (MHC class I binding score, peptide exchange yield)

{"substance": "606 (ALWETEVYI; listed as Homo sapiens) [compound 606]", "observedValue": "“+++” (≥50 = +++)"}
{"substance": "572 (ALADLIEKELSV; listed as Homo sapiens) [compound 572]", "observedValue": "“+++” (≥50 = +++)"}
{"substance": "320 (KMFEFVEPLL; listed as Homo sapiens) [compound 320]", "observedValue": "“++++” (≥75% = ++++)"}
{"substance": "576 (ILLNNSGQIKL; listed as Homo sapiens) [compound 576]", "observedValue": "“++++” (≥75% = ++++)"}

###

# assaySystem: HLA-A*02:01 (Homo sapiens, UniProt P04439, D140Y/D185E/D98H/E176V/E277Q/G131W/G231S/I119V/I121R/I166T/I218V/L300P/L318F/N151K/N90K/P208A/P217A/Q86G/Q94H/R138H/R169H/T345S)
# assaySummary: MHC binding assay (UV-ligand exchange, β2m ELISA, peptide exchange yield)
# recordedConditions: binding of HLA-class I restricted peptides to HLA-A*02:01, UV-ligand exchange
property: Peptide exchange (MHC class I binding score, peptide exchange yield)

{"substance": "218 (SALEELVNV; listed as Homo sapiens) [compound 218]", "observedValue": "“++” (≥20% = ++)"}
{"substance": "185 (FLIDDKGYTL; listed as Homo sapiens) [compound 185]", "observedValue": "“++” (≥20% = ++)"}
{"substance": "556 (FLTDLEDLTL; listed as Homo sapiens) [compound 556]", "observedValue": "“+++” (≥50 = +++)"}
{"substance": "143 (LLLDITPEI; listed as Homo sapiens) [compound 143]", "observedValue": "“++++” (≥75% = ++++)"}
{"substance": "7 (SLVGLLLYL; listed as Homo sapiens) [compound 7]", "observedValue": "“++++” (≥75% = ++++)"}
{"substance": "301 (FLVEDLVDSL; listed as Homo sapiens) [compound 301]", "observedValue": "“+++” (≥50 = +++)"}
{"substance": "327 (GLAPFTEGISFV; listed as Homo sapiens) [compound 327]", "observedValue": "“+++” (≥50 = +++)"}
{"substance": "214 (FLLDLDPLLL; listed as Homo sapiens) [compound 214]", "observedValue": "“+++” (≥50 = +++)"}

The record that follows has no Peptide exchange (MHC class I binding score, peptide exchange yield) shown yet.
Exercise: Let me know recorded Peptide exchange (MHC class I binding score, peptide exchange yield) for 81 (FLFSQLQYL; listed as Homo sapiens) [compound 81] , thanks.
Key: “++” (≥20% = ++)
